Target: C5a receptor (Homo sapiens, UniProt P21730)
Construct: endogenous in cells; host or cells: leukocytes/granulocytes in freshly drawn whole blood of healthy volunteers
Sequence (P21730 whole entry): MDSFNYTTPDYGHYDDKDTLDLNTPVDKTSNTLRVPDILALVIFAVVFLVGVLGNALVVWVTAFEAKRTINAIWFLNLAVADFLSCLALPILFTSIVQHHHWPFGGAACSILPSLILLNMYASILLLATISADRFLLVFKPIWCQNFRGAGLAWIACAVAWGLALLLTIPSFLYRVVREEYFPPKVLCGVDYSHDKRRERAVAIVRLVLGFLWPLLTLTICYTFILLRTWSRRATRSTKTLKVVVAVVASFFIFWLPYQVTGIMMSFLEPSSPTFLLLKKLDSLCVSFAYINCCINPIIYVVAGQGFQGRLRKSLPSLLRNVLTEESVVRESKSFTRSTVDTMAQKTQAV
Assay: HWB oxidative burst assay (C5a-induced, luminol chemiluminescence)
Format: cell-based
Experimental readout: Kb (nM)
Supply the numeric figure in nM, leaving out any unit text.

N=C(N)NCCC[C@@H]1NC(=O)[C@H](Cc2c[nH]c3ccccc23)NC(=O)[C@@H](C[C@H]2CC[C@@H](O)CC2)NC(=O)[C@@H]2C[C@@H](N)CN2C(=O)[C@@H](NC(=O)[C@H](Cc2ccccc2)NCC(=O)O)CCCNC1=O [Example 8] yielded Kb of 4

N=C(N)NCCC[C@@H]1NC(=O)[C@H](Cc2c[nH]c3ccccc23)NC(=O)[C@@H](C[C@H]2CC[C@@H](O)CC2)NC(=O)[C@@H]2C[C@H](NCC(=O)O)CN2C(=O)[C@@H](NC(=O)[C@H](Cc2ccccc2)NCC(=O)O)CCCNC1=O [Example 12] yielded Kb of 1.3

CC(=O)N[C@H]1C[C@H]2C(=O)N[C@H](C[C@H]3CC[C@@H](O)CC3)C(=O)N[C@@H](Cc3c[nH]c4ccccc34)C(=O)N[C@@H](CCCNC(=N)N)C(=O)NCCC[C@H](NC(=O)[C@H](Cc3ccccc3)NCC(=O)O)C(=O)N2C1 [Example 10] yielded Kb of 2.1

Cc1cnn(C[C@@H]2NC(=O)[C@@H](C[C@H]3CC[C@@H](O)CC3)NC(=O)[C@@H]3C[C@@H](O)CN3C(=O)[C@@H](NC(=O)[C@H](Cc3ccccc3)NCC(=O)O)CCCNC(=O)[C@H](CCCNC(=N)N)NC2=O)c1 [Example 3] yielded Kb of 21.6

Data origin: patent US20190270778A1
